Hey, just so you know, these numbers are from ChEMBL document CHEMBL1201862.

System: NCI-H460
Assay: NCI tumour cell line growth inhibition, 48 h
The source made the active and inactive calls. Rule as the data show it: active = GI50 up to about 1.1 µM and inactive = higher.
The categories you may choose from are active, inactive

Use these answered entries as a reference point.
| COMPOUND | CLASS |
| --- | --- |
| CC(NNC(=O)c1ccc[n+]([BH2-]C#N)c1)c1ccccc1 (stereo not given) | inactive |
| O=c1[nH]c2cc3cccnc3c(Cl)c2nc1CBr | inactive |
| Cc1cc(OC(=O)Nc2ccc(Cl)cc2)ccc1C(=S)Nc1ccccc1 | inactive |
| O=C(O)CCC(=O)C(=O)O | inactive |
| COP(=O)(OC)/C(=C/c1cn(C(c2ccccc2)(c2ccccc2)c2ccccc2)cn1)NC=O | inactive |

Q. Entry Cc1ccc(S(=O)(=O)N2CCC[C@@H]2C(=O)O[C@@H]2CCC3CC=CC32)cc1 (stereo not given in full) : call = ?
A. inactive

Q. Entry CN(C)c1ccc(/C=c2\sc3nnc(-c4ccco4)n3c2=O)cc1 : call = ?
A. inactive

Q. Entry CC(CO)(CO)N1C(=O)C2C3c4ccccc4C(c4ccccc43)C2C1=O (stereo not given) : call = ?
A. inactive

Q. Entry CCc1cccc(CC)c1Nc1nc(-c2ccccc2-c2ccccc2)cs1 : call = ?
A. inactive

Q. Entry Cc1cc2[nH]c(=NS(=O)(=O)c3cc(C)c(Cl)cc3S)[nH]c2cc1C : call = ?
A. inactive

* * *

Tested on: HOP-92
Assay: NCI tumour cell line growth inhibition, 48 h
Calls of active or inactive are those of the source. Cut-off read from the data, not from the text of the source: active = GI50 up to about 1.1 µM and inactive = higher.
The categories you may choose from are TRUE (active), FALSE (inactive)

| COMPOUND | TARGET_OR_SYSTEM | CLASS |
| --- | --- | --- |
| CC(=O)C(C(=O)C(C)(C)C)C(=O)C(C)(C)C | HOP-92 | FALSE |
| CCN(CC)CCNC(=O)c1ccc(C)c(OCc2ccccc2)c1[N+](=O)[O-] | HOP-92 | FALSE |
| CC[C@H]1C=CCC[C@@]2(C[C@@H]3CC[C@H]4[C@@H](C(=O)OCCCCCCCCCCCCCCCC(=O)N(CCCN)C[C@@H](O)CCN)[C@@]5(CCC[C@@H](C)O5)NC(=[N+]34)N2)O1 | HOP-92 | FALSE |
| CC(NNC(=O)c1cc[n+]([BH2-]C#N)cc1)c1cccc(C(F)(F)F)c1 (centres undefined) | HOP-92 | FALSE |
| CN(C)CCNc1ccc2c(=O)n(CCN(C)C)c(=O)n3c4ccc(O)cc4c(=O)c1c23 | HOP-92 | TRUE |

Q. Entry O=C(OCC(OC(=O)c1ccccc1)C1CC(C(O)C2CCCCC2)C(=O)O1)c1ccccc1 (centres undefined) : call = ?
A. FALSE

Q. Entry NS(=O)(=O)c1nnc(NS(=O)(=O)c2ccccc2C(=O)O)s1 : call = ?
A. FALSE

* * *

Tested on: DLD-1
Assay: NCI tumour cell line growth inhibition, 48 h
Activity calls are given as the source filed them. No stated cut-off is given here; in the data, active = GI50 up to about 1.1 µM and inactive = higher.
Exercise: state measured GI50 for each of the compounds provided.

Study these solved cases before continuing.
| COMPOUND | GI50 |
| --- | --- |
| CC(C)(C)OC(=O)N[C@H]1CC(=O)c2ccccc2N(CC(=O)O)C1=O | > 100 µM (inactive) |
| O=c1[nH]c(C2CCCCC2)nc2c(Cl)cccc12 | > 100 µM (inactive) |
| COc1cc2c(cc1OC)C(C#N)N(C(=O)c1ccccc1)C=C2OC(=O)c1ccccc1 (configuration not stated) | 29.6 µM (inactive) |

// for each compound in input: emit GI50
1. O=C(CSc1nc(-c2ccccc2)c(-c2ccccc2)[nH]1)NNC(=S)Nc1ccccc1
2. C=CC(=O)NCNC(=O)C=C
3. N#CC(C(=O)CCCC(=O)Nc1ccc(Cl)cc1Cl)c1ccccc1 (configuration not stated)
4. CCOC(=O)C1=C(C)N(C2OC(COC(=O)c3ccccc3)C(OC(=O)c3ccccc3)C2OC(=O)c2ccccc2)C(=S)NC1c1ccccc1 (configuration not stated)

A.
["96.4 µM (inactive)", "> 100 µM (inactive)", "> 100 µM (inactive)", "38.9 µM (inactive)"]

// for each compound in input: emit GI50
1. CCCCCCCCCCCCC(=O)OC(c1cnco1)c1nc(C(O)CC(O)C(O)C(C)O)co1 (configuration not stated)
2. CC(OC(C)(C)C)[C@H](NC(=O)OCC(Cl)(Cl)Cl)C(=O)O (some centres not stated)
3. CN(C)c1ccc(/C=c2\sc3nnc(-c4ccco4)n3c2=O)cc1

A.
["0.946 µM (active)", "> 100 µM (inactive)", "> 100 µM (inactive)"]
